Measured melting point accompanies every entry in the list below.

CCOc1cc(C(=CC#N)c2ccc3c(c2)CCO3)ccc1OC (mixture of isomers) [compound 1] = 49 to 51 °C

[in] Any idea what its melting point is? The compound is COc1cc(OC)cc(C(=CC#N)c2ccc3ncccc3c2)c1 (mixture of isomers) [compound 6]
[out] 142 to 144 °C

[in] Which melting point value is on record for CCOc1cc(C(=CC#N)c2ccc3cc[nH]c3c2)ccc1OC (mixture of isomers) [compound 8] ?
[out] 132 to 134 °C

[in] Recorded melting point for CCOc1cc(C(=CC#N)c2ccc3ncccc3c2)ccc1OC (mixture of isomers) [compound 5] , please?
[out] 114 to 116 °C

====

reported_metric: melting point

COc1cc(OC)cc(C(=CC#N)c2ccc3c(c2)OCCN3C)c1 [compound 2] = 119 to 121 °C

[in] What melting point value was documented for this molecule, COc1cc(OC)cc(C(=CC#N)c2ccc3ccn(C)c3c2)c1 (mixture of isomers) [compound 7] ?
[out] 117 to 119 °C

[in] // lookup melting point for CCOc1cc(C(=CC#N)c2ccc3occc3c2)ccc1OC (mixture of isomers) [compound 10]
[out] 95 to 97 °C

[in] Fill blank: measured melting point of the molecule CCOc1cc(C(=CC#N)c2ccc3c(c2)OCCN3C)ccc1OC (mixture of isomers) [compound 3] is ____.
[out] 99 to 101 °C

[in] // returns reported melting point for input CCOc1cc(C(=CC#N)c2ccc3c(c2)nnn3C)ccc1OC (mixture of isomers) [compound 4]
[out] 180 to 182 °C
